This collection of values is drawn from ChEMBL document CHEMBL3217679.

Test system: Pichia kudriavzevii
Assay: Antifungal activity against Candida krusei ATCC 6258 assessed as growth inhibition after 46 to 50 hrs by modified CLSI method
Format: functional, organism-based
Consider the following compounds; for each one, report its IC50.

Examples from the recorded data:
INSERT INTO measurements (compound, value) VALUES
  ('CC(=O)C(=CC=C(c1ccccc1)c1ccccc1)C(C)=O', '> 60 µM'),
  ('COc1ccc(/C=C/C=C2C(=O)CC(c3ccccc3)CC2=O)cc1 (stereo not given)', '> 60 µM'),
  ('C/C=C/C=C/C=C1C(=O)CC(C)(C)CC1=O', '> 60 µM');

Look up IC50 for the entries below, preserving their order.
1. O=C1CCCC(=O)C1=CC=C(c1ccccc1)c1ccccc1
2. C/C=C/C=C/C=C1C(=O)CCCC1=O
3. C[C@@H]1[C@H](O)[C@@H](C)/C=C/C=C/C=C/C=C/C=C/C=C/C=C/[C@H](O[C@@H]2O[C@H](C)[C@@H](O)[C@H](N)[C@@H]2O)C[C@@H]2O[C@](O)(C[C@@H](O)C[C@@H](O)[C@H](O)CC[C@@H](O)C[C@@H](O)CC(=O)O[C@H]1C)C[C@H](O)[C@H]2C(=O)O
4. O=C1CCC(=O)C1=C/C=C/c1ccc(Br)cc1
5. COc1ccc(/C=C/C=C2C(=O)CCC2=O)cc1
6. O=C1CCC(=O)C1=C/C=C/c1ccccc1
7. CC1(C)CC(=O)C(=CC=C(c2ccccc2)c2ccccc2)C(=O)C1
8. CC1(C)CC(=O)C(=C/C=C/c2ccc(F)cc2)C(=O)C1

1: > 60 µM; 2: > 60 µM; 3: 0.78 µM; 4: > 60 µM; 5: 24.1 µM; 6: 42.6 µM; 7: > 60 µM; 8: > 60 µM

Look up IC50 for the entries below, preserving their order.
1. CC1(C)CC(=O)C(=C/C=C/c2ccc(Br)cc2)C(=O)C1
2. COc1ccc(/C=C/C=C2C(=O)CCCC2=O)cc1
3. CC1(C)CCC(=O)/C(=C\C=C\c2ccccc2)C1=O

1: > 60 µM; 2: > 60 µM; 3: > 60 µM

Look up IC50 for the entries below, preserving their order.
1. CC1(C)CC(=O)C(=C/C=C/c2ccccc2)C(=O)C1
2. CC(=O)C(=C/C=C/c1ccccc1)C(C)=O

["> 60 µM", "> 60 µM"]

Look up IC50 for the entries below, preserving their order.
1. COc1ccc(/C=C/C=C(C(C)=O)C(C)=O)cc1
2. COc1ccc(/C=C/C=C2C(=O)CC(C)(C)CC2=O)cc1
3. CC(=O)C(=C/C=C/c1ccc(Br)cc1)C(C)=O
4. CC(=O)/C(=C\C=C\c1ccccc1)C(=O)OC(C)(C)C

1: > 60 µM; 2: > 60 µM; 3: > 60 µM; 4: > 60 µM

###

Assay: Cytotoxicity against African green monkey Vero cells by neutral red assay
Format: cell-based
Conditions: chlorocebus sabaeus, read-out: TC50 (the source's name)
MEASURE_NAME: CC50

Examples from the recorded data:
INSERT INTO results (compound, measure_name, value) VALUES
  ('CC1(C)CC(=O)C(=C/C=C/c2ccc(Br)cc2)C(=O)C1', 'CC50', '> 14.3 µM'),
  ('O=C1CCC(=O)C1=C/C=C/c1ccccc1', 'CC50', '> 22.4 µM'),
  ('COC(/C=C/c1ccccc1)=C1\C(=O)C=C(C)C1=O', 'CC50', '19.3 µM'),
  ('CC1(C)CC(=O)C(=CC=C(c2ccccc2)c2ccccc2)C(=O)C1', 'CC50', '> 14.4 µM'),
  ('CC(=O)/C(=C\C=C\c1ccccc1)C(=O)OC(C)(C)C', 'CC50', '> 17.5 µM');

Look up CC50 for the entries below, preserving their order.
1. COc1ccc(/C=C/C=C2C(=O)CC(c3ccccc3)CC2=O)cc1 (stereo unspecified)
2. O=C1CCCC(=O)C1=CC=C(c1ccccc1)c1ccccc1
3. C[C@@H]1[C@H](O)[C@@H](C)/C=C/C=C/C=C/C=C/C=C/C=C/C=C/[C@H](O[C@@H]2O[C@H](C)[C@@H](O)[C@H](N)[C@@H]2O)C[C@@H]2O[C@](O)(C[C@@H](O)C[C@@H](O)[C@H](O)CC[C@@H](O)C[C@@H](O)CC(=O)O[C@H]1C)C[C@H](O)[C@H]2C(=O)O
4. COc1ccc(/C=C/C=C2C(=O)CC(C)(C)CC2=O)cc1
5. C/C=C/C=C/C=C1C(=O)CC(C)(C)CC1=O
6. CC1(C)CC(=O)C(=C/C=C/c2ccc(F)cc2)C(=O)C1

1: > 14.3 µM; 2: > 15.7 µM; 3: 7.6 µM; 4: > 16.7 µM; 5: > 21.8 µM; 6: > 17.5 µM

###

Consider the following compounds; for each one, report its pIC50.
System: Leishmania donovani
Test: Antiparasitic activity against Leishmania donovani S1 promastigotes assessed as growth inhibition after 72 hrs by alamar blue assay
Assay type: functional, organism-based
Conditions: S1, 72 h
Give bare numbers, as −log10 of the molar value.

Examples from the recorded data:
INSERT INTO measurements (compound, value) VALUES
  ('COc1ccc(/C=C/C=C(C(C)=O)C(C)=O)cc1', 4.41),
  ('CC1(C)CC(=O)C(=CC=C(c2ccccc2)c2ccccc2)C(=O)C1', 5.03),
  ('C/C=C/C=C/C=C1C(=O)CC(C)(C)CC1=O', 4.34),
  ('CC(=O)C(=C/C=C/c1ccccc1)C(C)=O', 4.72),
  ('CC1(C)CCC(=O)/C(=C\C=C\c2ccccc2)C1=O', 4.93);

Look up pIC50 for the entries below, preserving their order.
1. CC(=O)C(=CC=C(c1ccccc1)c1ccccc1)C(C)=O
2. O=C1CCC(=O)C1=C/C=C/c1ccccc1
3. N=C(N)c1ccc(OCCCCCOc2ccc(C(=N)N)cc2)cc1 [PENTAMIDINE]
4. O=C1CCC(=O)C1=C/C=C/c1ccc(Br)cc1
5. CC(=O)/C(=C\C=C\c1ccccc1)C(=O)OC(C)(C)C
6. O=C1CCCC(=O)C1=CC=C(c1ccccc1)c1ccccc1
7. COc1ccc(/C=C/C=C2C(=O)CCCC2=O)cc1

1: 5.03; 2: 5.67; 3: 5.42; 4: 5.07; 5: 4.33; 6: 4.99; 7: 4.71

###

Test: Cytotoxicity against African green monkey Vero cells by neutral red assay
Format: cell-based
Details: chlorocebus sabaeus, read-out: TC50 (the source's name)
Consider the following compounds; for each one, report its CC50.

Examples from the recorded data:
INSERT INTO measurements (structure_as_smiles, value) VALUES
  ('O=C1CCC(=O)C1=C/C=C/c1ccc(Br)cc1', '> 16.3 µM'),
  ('CC(=O)C(=C/C=C/c1ccc(Br)cc1)C(C)=O', '> 16.2 µM'),
  ('CC(=O)C(=C/C=C/c1ccccc1)C(C)=O', '> 22.2 µM'),
  ('CC1(C)CCC(=O)/C(=C\C=C\c2ccccc2)C1=O', '> 18.7 µM'),
  ('COc1ccc(/C=C/C=C(C(C)=O)C(C)=O)cc1', '> 19.5 µM');

Look up CC50 for the entries below, preserving their order.
1. CC1(C)CC(=O)C(=C/C=C/c2ccccc2)C(=O)C1
2. COc1ccc(/C=C/C=C2C(=O)CCCC2=O)cc1
3. C/C=C/C=C/C=C1C(=O)CCCC1=O

> 18.7 µM
> 18.6 µM
> 25 µM

Look up CC50 for the entries below, preserving their order.
1. CC(=O)C(=CC=C(c1ccccc1)c1ccccc1)C(C)=O
2. COc1ccc(/C=C/C=C2C(=O)CCC2=O)cc1

["> 16.4 µM", "> 19.6 µM"]
